Value source: patent US9346809B2

Target: JAK2 (catalytic domain, His-tag) (Homo sapiens)
Construct: All four purified enzymes contain only the catalytic domain; His (N); purchased Carna Biosciences, Inc; host or cells: baculovirus expression system
Sequence (O60674 849-1124 limits assumed): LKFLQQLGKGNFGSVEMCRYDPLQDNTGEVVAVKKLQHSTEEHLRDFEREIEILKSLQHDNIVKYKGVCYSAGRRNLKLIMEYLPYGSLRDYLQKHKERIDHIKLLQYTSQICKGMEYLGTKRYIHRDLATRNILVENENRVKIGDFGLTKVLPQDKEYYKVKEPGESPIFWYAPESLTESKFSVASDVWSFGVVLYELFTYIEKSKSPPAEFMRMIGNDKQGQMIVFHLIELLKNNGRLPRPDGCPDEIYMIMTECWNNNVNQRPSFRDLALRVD
Experiment: JAK kinase assay (HTRF, phosphorylation of TK substrate-biotin), JAK2
Assay type: biochemical
Conditions: HTRF assay, ATP at Km (4 μM); read-out: JAK2 kinase inhibitory activity (EC50 indicator)
We begin with a simple list: items and their reported EC50.
Reported Endpoint: EC50

{"columns": ["Line Notation", "Assay Result"],
 "data": [
  ["N#Cc1ccccc1C(=O)N1CCN(c2ncnc3[nH]ccc23)CC12CC2", "< 100 nM"],
  ["COc1cnc2[nH]ccc2c1N1CCN(C(=O)c2cccc(C#N)c2)C2(CC2)C1", "100 to 500 nM"],
  ["CS(=O)(=O)c1cc(C(=O)N2CCN(c3ncnc4[nH]ccc34)CC23CC3)ccc1F", "< 100 nM"],
  ["Cc1cncc(C(=O)N2CCN(c3ncnc4[nH]ccc34)CC23CC3)n1", "< 100 nM"]
]}
